The reported measurements were obtained from patent US20020137929A1.

System: TRZAWR (Wheat, Winter, cv Riband)
test description: Postemergence herbicidal evaluation
Assay type: in vivo, Triticum aestivum
assay setup: postemergence, rate 0.0315 kg/ha
measured quantity: TRZAWR herbicidal rating

Here's what some known entries look like.
# compound, measured quantity, result
records = [
    ("CCOC(=O)[C@H](Cc1ccccc1)N1C(=O)CSC1=Nc1cc(-n2c(=O)cc(C(F)(F)F)n(C)c2=O)c(F)cc1Cl", "TRZAWR herbicidal rating", 3.5),
    ("C[C@H](C(=O)O)N1C(=O)CSC1=Nc1cc(-n2c(=O)cc(C(F)(F)F)n(C)c2=O)c(F)cc1Cl", "TRZAWR herbicidal rating", 4.0),
    ("CCOC(=O)CN1C(=O)C(Cc2ccccc2)SC1=Nc1cc(-n2c(=O)cc(C(F)(F)F)n(C)c2=O)c(F)cc1Cl (stereo not drawn)", "TRZAWR herbicidal rating", 3.5),
    ("C=CCOC(=O)CC1SC(=Nc2cc(-n3c(=O)cc(C(F)(F)F)n(C)c3=O)c(F)cc2Cl)N(CC=C)C1=O (stereo not drawn)", "TRZAWR herbicidal rating", 7.0),
    ("COC(=O)[C@@H](Cc1ccccc1)N1C(=O)CSC1=Nc1cc(-n2c(=O)cc(C(F)(F)F)n(C)c2=O)c(F)cc1Cl", "TRZAWR herbicidal rating", 4.5),
]

Please examine the following record next.
For C#CCOC(=O)CC1SC(=Nc2cc(-n3c(=O)cc(C(F)(F)F)n(C)c3=O)c(F)cc2Cl)N(C)C1=O (stereo not drawn) the compound record lists TRZAWR herbicidal rating as 7.0
